test: inhibitors of hydroxyurea-induced Chk1 phosphorylation, primary screen, imaging, HeLa, phospho-Chk1 nuclear intensity (AID 1187); details: hydroxyurea-induced phospho-Chk1 immunofluorescence imaging, higher = more signal; note: test concentration not given here
Assign yes to entries whose z-score meets or exceeds -0.2; assign no to the rest.

- Cc1cccc([C@H]2C[C@H]3C(Br)=C[C@@]2(CO)C(=O)[C@]32CO2)c1: no
- C=C(C)C1CN([C@H](CO)c2ccccc2)C(=O)/C1=C\c1ccccc1 (stereo partly drawn): no
- COc1ccc(CCNC(=O)[C@@H]2c3ccccc3C(=O)N(C(C)C)[C@H]2c2ccc(CO)cc2)cc1: no
- Cc1ccc(S[C@]2(C(=O)NC3CC3)CC(=O)N(C3Cc4ccccc4C3)[C@@H]2c2ccc(CO)cc2I)cc1: yes
- COC(=O)[C@@]1(Cc2ccc(OC)cc2)[C@@H]2[C@@H](CC(=O)[C@H]2CC(=O)C(=O)N(C)C)CN1C(=O)c1ccccc1: no
- CC(C)N1C(=O)[C@@]2(Cc3ccccc31)c1ccccc1C(=O)N(Cc1ccccc1)[C@H]2c1ccc(CO)cc1: yes
- [N-]=[N+]=Nc1ccccc1C[C@]1(C(=O)N2CCCCC2)N=C(c2ccc(OCCCO)cc2)O[C@H]1c1ccccc1: no
- O=C1O[C@@H](c2ccccc2)[C@@H](c2ccccc2)N2[C@@H](c3ccccc3OCCO)[C@]3(C(=O)Nc4ccc(C#CC5(O)CCCCCC5)cc43)[C@@H](C(=O)N3CCCCCCC3)[C@H]12: yes
- CC(C)N1CC=CC23O[C@@H]4/C=C\CCCOC(=O)C4[C@H]2C(=O)N(C(C)CO)[C@@H]3C1=O (stereo partly drawn): no
- O=C1O[C@@H](c2ccccc2)[C@@H](c2ccccc2)N2[C@@H](c3ccc(OCCO)cc3)[C@]3(C(=O)Nc4ccc(C#CC5=CCCCC5)cc43)[C@@H](C(=O)Nc3nc4ccccc4s3)[C@H]12: no
- C=C(COC)C(=O)CC[C@H](OC(C)=O)c1ccc(CO)o1: no
- O=C(NCC(F)(F)F)[C@@H]1c2ccccc2C(=O)N(Cc2cc(C(F)(F)F)cc(C(F)(F)F)c2)[C@H]1c1ccc(CO)cc1: no
- COCCCNC(=O)[C@@]1(c2ccc([N+](=O)[O-])cc2)CC(=O)N(C2CCCCC2)[C@@H]1c1ccc(CO)cc1I: yes
- C=C(COC)C(=O)CC[C@H](OC(C)=O)c1ccccc1OCCO: no
- O=C1C2C=CC(C(O)C3CCCCC3)N(Nc3ccccc3F)C2C(=O)N1c1ccccc1 (stereo not drawn): yes
- C=C(C(=O)CC[C@@H](OC(=O)c1ccccc1-c1ccccc1C(=O)O)c1ccc(CO)o1)C(C)C: yes
- COCCOC(=O)N1C(=O)[C@@]2(c3cc(C#CCC(C(=O)OC)C(=O)OC)ccc31)[C@H](C(=O)N1CCc3cc(OC)c(OC)cc3C1)[C@H]1C(=O)O[C@H](c3ccccc3)[C@H](c3ccccc3)N1[C@@H]2c1ccccc1OCCO: no
- CN1C(=O)C2C=CC(C(O)COCc3ccccc3)N(Nc3ccc([N+](=O)[O-])cc3[N+](=O)[O-])C2C1=O (stereo not drawn): no

* * *

As shown below, each of these compounds has a reported composite z-score value.
biological target: Concanavalin-A (Canavalia ensiformis) (UniProt P02866); experiment: ConA small-molecule binders, primary screen, artefact control for SMM control protein annotation, biochemical, small-molecule microarray, Alexa647 label, 635 nm (AID 1127); settings: ConA-A647 binding fluorescence, higher = more signal;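 note: z combines 667 nm emission intensity with signal-to-noise across three replicate slides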
Sequence (P02866 whole entry, looked up): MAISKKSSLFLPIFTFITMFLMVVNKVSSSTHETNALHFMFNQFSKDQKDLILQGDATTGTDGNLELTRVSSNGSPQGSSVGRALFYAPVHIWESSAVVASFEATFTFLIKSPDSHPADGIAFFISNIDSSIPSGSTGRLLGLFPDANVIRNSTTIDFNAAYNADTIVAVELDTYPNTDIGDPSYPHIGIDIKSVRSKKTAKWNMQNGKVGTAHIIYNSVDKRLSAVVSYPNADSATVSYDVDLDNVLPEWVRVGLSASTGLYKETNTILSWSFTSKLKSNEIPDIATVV
EXPERIMENTAL_READOUT: composite z-score

- [N-]=[N+]=Nc1ccccc1C[C@@]1(C(=O)NCc2ccccc2)N=C(c2ccc(OCCCO)cc2)O[C@@H]1c1ccccc1: 0.775
- COc1cc(CO)cc(I)c1O[C@H]1C=C(C(=O)NCCO)C[C@@H](N(CCN2CCOCC2)C(=O)C2CCCO2)[C@@H]1O (some centres undefined): -0.0855
- COCCOC(=O)N1C(=O)[C@@]2(c3cc(C#CC4=CCCCC4)ccc31)[C@H](C(=O)N1CCCCCCC1)[C@H]1C(=O)O[C@H](c3ccccc3)[C@H](c3ccccc3)N1[C@@H]2c1ccccc1OCCO: 1.11
- C=CC[C@H](OC(=O)Nc1ccc(SC)cc1)c1ccc(O)c(F)c1: -0.873
